For each record, write down the corresponding TG.
Species: Rattus norvegicus
Experiment: Open TG-GATES - Regimen: Single
Assay type: toxicity, organism-based, Sprague-Dawley
Set-up: regimen Single, gender Male, age 6 weeks
Conditions: in vivo, po, 0 mg/kg, 9 h, tissue Plasma, route gavage, dose level Control
Reply with just the number (in mg/dL).

[Q] What measured TG goes with CCc1oc2ccccc2c1C(=O)c1cc(I)c(O)c(I)c1 ?
[A] 32.8

[Q] What measured TG goes with CC(C)C(=O)Nc1ccc([N+](=O)[O-])c(C(F)(F)F)c1 [FLUTAMIDE] ?
[A] 43

[Q] What measured TG goes with CCC(C)(C)C(=O)O[C@H]1C[C@@H](C)C=C2C=C[C@H](C)[C@H](CC[C@@H]3C[C@@H](O)CC(=O)O3)[C@H]21 ?
[A] 34.2

[Q] What measured TG goes with Nc1nc(N)c2nc(-c3ccccc3)c(N)nc2n1 ?
[A] 41.4

[Q] What measured TG goes with CC(=N)S [THIOACETAMIDE] ?
[A] 42

[Q] What measured TG goes with C[C@](N)(Cc1ccc(O)c(O)c1)C(=O)O ?
[A] 30.6

[Q] What measured TG goes with CCN1CCCC1CNC(=O)c1cc(S(N)(=O)=O)ccc1OC (stereo not given) [SULPIRIDE] ?
[A] 61

[Q] What measured TG goes with C[C@]12CCC(=O)C=C1CC[C@@H]1[C@@H]2CC[C@@]2(C)[C@H]1CC[C@]2(C)O ?
[A] 23

[Q] What measured TG goes with O=C(N[C@H](CO)[C@H](O)c1ccc([N+](=O)[O-])cc1)C(Cl)Cl ?
[A] 49.6

[Q] What measured TG goes with CC(C)(S)[C@@H](N)C(=O)O ?
[A] 55

[Q] What measured TG goes with CC(=O)Oc1cc(C(C)C)c(OCCN(C)C)cc1C ?
[A] 65.4

[Q] What measured TG goes with Oc1ncnc2[nH]ncc12 ?
[A] 48

[Q] What measured TG goes with O=C(O)c1cccnc1 ?
[A] 52.2

[Q] What measured TG goes with CN1C(=O)OC(C)(C)C1=O ?
[A] 31.2

[Q] What measured TG goes with CCSCC[C@H](N)C(=O)O ?
[A] 53.6

====

For each record, write down the corresponding TG.
Organism: Rattus norvegicus
Assay: Open TG-GATES - Regimen: Daily Repeat
Format: toxicity, organism-based, Sprague-Dawley
Parameters: regimen Daily Repeat, gender Male, age 6 weeks
Conditions: in vivo, po, 300 mg/kg, 72 h, tissue Plasma, route gavage, dose level Middle, time 3 day
Reply with just the number (in mg/dL).

[Q] What measured TG goes with O=C(O)c1cccnc1 ?
[A] 136.2

[Q] What measured TG goes with O=C(N[C@H](CO)[C@H](O)c1ccc([N+](=O)[O-])cc1)C(Cl)Cl ?
[A] 66.6

[Q] What measured TG goes with CC(C)(S)[C@@H](N)C(=O)O ?
[A] 102.8

[Q] What measured TG goes with CCN1CCCC1CNC(=O)c1cc(S(N)(=O)=O)ccc1OC (centres undefined) [SULPIRIDE] ?
[A] 92.8

====

Species on record: Rattus norvegicus
Test: Open TG-GATES - Regimen: Daily Repeat
Format: toxicity, organism-based, Sprague-Dawley
Set-up: regimen Daily Repeat, gender Male, age 6 weeks
Settings: in vivo, po, 0 mg/kg, […], tissue Plasma, route gavage, dose level Control, time 28 day
measured_quantity: ALP (IU/L)
Reply with just the number (in IU/L).

[Q] What measured ALP goes with C[C@]12CCC(=O)C=C1CC[C@@H]1[C@@H]2CC[C@@]2(C)[C@H]1CC[C@]2(C)O [METHYLTESTOSTERONE] ?
[A] 1136

[Q] What measured ALP goes with CC(C)(S)[C@@H](N)C(=O)O [PENICILLAMINE] ?
[A] 945.4

[Q] What measured ALP goes with CN1C(=O)OC(C)(C)C1=O [TRIMETHADIONE] ?
[A] 1156.4

[Q] What measured ALP goes with CC(=N)S [THIOACETAMIDE] ?
[A] 629

[Q] What measured ALP goes with CCC(C)(C)C(=O)O[C@H]1C[C@@H](C)C=C2C=C[C@H](C)[C@H](CC[C@@H]3C[C@@H](O)CC(=O)O3)[C@H]21 [SIMVASTATIN] ?
[A] 672
